- Measured on: human NKp30 (human) (UniProt O14931)
- Sequence (O14931 19-135 limits assumed): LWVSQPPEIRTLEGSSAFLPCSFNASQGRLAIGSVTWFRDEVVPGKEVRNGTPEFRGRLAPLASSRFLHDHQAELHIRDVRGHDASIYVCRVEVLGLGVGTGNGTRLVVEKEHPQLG
- Experiment notes: BLI, ratio to ΔB7-H6_wt
// returns n unless x-fold KD improvement is strictly below 10 fold, in which case y

For this binder, is x-fold KD improvement lower than 10 fold? ΔB7-H6_S3#30-SEED-PGLALA (bispecific antibody, part only; not given: SEED Fc chains and hu225 Fab, part only) chain, part: DLKVEMMAGGTQITPLNDNVTIFCNIFYSQPLNITEMGITWFWKSLTFDKEVKVFEFWGDHQEAFRPGAIVSPWRLKSGDASLRLPGIQLEEAGEYRCEVIVTPLKAQGTVQLEVVASPAS
y

For this binder, is x-fold KD improvement lower than 10 fold? ΔB7-H6_S3#6-SEED-PGLALA (bispecific antibody, part only; not given: SEED Fc chains and hu225 Fab, part only) chain, part: DLKVEMMAGGTQITPLNDNVTIFCNIFYSQPLNITHMGITWFWKSLTFDKEVKVFEFWGDHQEAFRPGAIVSPWRLKSGDASLRLPGIQLEEAGEYRCEVVVTPYKAQGTVQLEVVASPAS
n

For this binder, is x-fold KD improvement lower than 10 fold? ΔB7-H6_S2#11-SEED-PGLALA (bispecific antibody, part only; not given: SEED Fc chains and hu225 Fab, part only) chain, part: DLKVEMMAGGTQITPLNDNVTIFCNIFYSQPLNITTMGITWFWKSLTFDKEVKVFEFWQDHQEAFRPGAIVSPWRLKSGDASLRLPGIQLEEAGEYRCEVVVTPLKAQGTVQLEVVASPAS
y

For this binder, is x-fold KD improvement lower than 10 fold? ΔB7-H6_S2#14-SEED-PGLALA (bispecific antibody, part only; not given: SEED Fc chains and hu225 Fab, part only) chain, part: DLKVEMMAGGTQITPLNDNVTIFCNIFYSQPLNITTMGITWFWKSLTFDKEVKVFEFFGDHQEAFRPGAIVSPWRLKSGDASLRLPGIQLEEAGEYRCEVVVTPYKAQGTVQLEVVASPAS
y

For this binder, is x-fold KD improvement lower than 10 fold? ΔB7-H6_S3#29-SEED-PGLALA (bispecific antibody, part only; not given: SEED Fc chains and hu225 EGFR Fab, part only) chain, part: DLKVEMMAGGTQITPLNDNVTIFCNIFYSQPLNITVMGITWFWKSLTFDKEVKVFEFWGDHQEAFRPGAIVSPWRLKSGDASLRLPGIQLEEAGEYRCEVIVTPYKAQGTVQLEVVASPAS
n

For this binder, is x-fold KD improvement lower than 10 fold? ΔB7-H6_S3#11-SEED-PGLALA (bispecific antibody, part only; not given: SEED Fc chains and hu225 Fab, part only) chain, part: DLKVEMMAGGTQITPLNDNVTIFCNIFYSQPLNITLMGITWFWKSLTFDKEVKVFEFWGDHQEAFRPGAIVSPWRLKSGDASLRLPGIQLEEAGEYRCEVIVTPFKAQGTVQLEVVASPAS
n

For this binder, is x-fold KD improvement lower than 10 fold? ΔB7-H6_S3#10-SEED-PGLALA (bispecific antibody, part only; not given: SEED Fc chains and hu225 Fab, part only) chain, part: DLKVEMMAGGTQITPLNDNVTIFCNIFYSQPLNITSMGITWFWKSLTFDKEVKVFEFYGDHQEAFRPGAIVSPWRLKSGDASLRLPGIQLEEAGEYRCEVFVTPYKAQGTVQLEVVASPAS
y

For this binder, is x-fold KD improvement lower than 10 fold? ΔB7-H6_S3#5-SEED-PGLALA (bispecific antibody, part only; not given: SEED Fc chains and hu225 Fab, part only) chain, part: DLKVEMMAGGTQITPLNDNVTIFCNIFYSQPLNITVMGITWFWKSLTFDKEVKVFEFWGDHQEAFRPGAIVSPWRLKSGDASLRLPGIQLEEAGEYRCEVVVTPYKAQGTVQLEVVASPAS
n

For this binder, is x-fold KD improvement lower than 10 fold? ΔB7-H6_S3#24-SEED-PGLALA (bispecific antibody, part only; not given: SEED Fc chains and hu225 Fab, part only) chain, part: DLKVEMMAGGTQITPLNDNVTIFCNIFYSQPLNITIMGITWFWKSLTFDKEVKVFEFYGDHQEAFRPGAIVSPWRLKSGDASLRLPGIQLEEAGEYRCEVVVTPYKAQGTVQLEVVASPAS
n

For this binder, is x-fold KD improvement lower than 10 fold? ΔB7-H6_S3#8-SEED-PGLALA (bispecific antibody, part only; not given: SEED Fc chains and hu225 EGFR Fab, part only) chain, part: DLKVEMMAGGTQITPLNDNVTIFCNIFYSQPLNITHMGITWFWKSLTFDKEVKVFEFWGDHQEAFRPGAIVSPWRLKSGDASLRLPGIQLEEAGEYRCEVIVTPLKAQGTVQLEVVASPAS
y

Where do these numbers come from? They come from patent US20230287082A1.
